System: SK-MEL-5 melanoma
assaySummary: NCI tumour cell line growth inhibition, 48 h; in the data active = GI50 below about 0.43 µM; inactive = the rest
Allowed answers: 1 for active, 0 for inactive

// known answers, use as guide
{"columns": ["molecule", "classification"],
 "data": [
  ["COc1ccc2c(c1)/C(=C/c1c(-c3ccc(C)cc3)nc3sc(C)cn13)C(=O)N2", 0],
  ["COc1cc(/C=C2\\C[C@H]3[C@@H]4CC=C5C[C@@H](OC(C)=O)CC[C@]5(C)[C@H]4CC[C@]3(C)[C@H]2OC(C)=O)ccc1OCCCn1ccnc1", 0],
  ["Cc1c(N(C(=O)c2cc(-c3cc(Cl)ccc3C(=O)N3Cc4ccccc4C[C@H]3CN3CCOCC3)n(C)c2C)c2ccc(O)cc2)cc(C#N)n1C", 0],
  ["O=C(/C=C/C12c3ccccc3C(c3ccccc31)C1C(=O)NC(=O)C12)c1ccco1 (stereo not drawn)", 0],
  ["O=C(Nc1cccc(-c2nc3ccccc3[nH]2)c1)c1cccc(NC(=O)c2ccco2)c1", 0]
]}

// query Field: outcome | Entry: `COc1cc2c3c(n(CCCn4ccnc4)c(=O)c2cc1OC)-c1ccccc1C3=O`
// result 1

// query Field: outcome | Entry: `C=C1C(=O)O[C@H]2[C@H]1CC/C(COC(=O)N[C@@H](Cc1c[nH]c3ccccc13)C(=O)OC)=C\CC[C@@]1(C)O[C@@H]21`
// result 0

// query Field: outcome | Entry: `O=c1[nH]cnc2c1nnn2[C@@H]1O[C@H](CO)[C@@H](O)[C@H]1O`
// result 0

// query Field: outcome | Entry: `CN(C)c1ccc2[nH]c(O)c(C=Nc3ccc(S(N)(=O)=O)cc3)c2c1`
// result 0

// query Field: outcome | Entry: CCCCCCCCO/N=C\c1c2c(O)c3c(O)c(C)c4c(c3c1O)C(=O)C(C)(O/C=C\C(OC)C(C)C(OC(C)=O)C(C)C(O)C(C)C(O)C(C)/C=C\C=C(\C)C(=O)N2)O4 (stereo not drawn)
// result 0

// query Field: outcome | Entry: `O=S(=O)(NCCNc1cc(-c2cn(-c3ccccc3)nc2-c2cccc(O)c2)ccn1)c1ccc(F)cc1`
// result 0

// query Field: outcome | Entry: `COc1cc(/C=C/C(=O)CC(=O)/C=C/c2ccc(OC(=O)CCNC34CC5CC(CC(C5)C3)C4)c(OC)c2)ccc1OC(=O)CCNC12CC3CC(CC(C3)C1)C2`
// result 0

// query Field: outcome | Entry: `COc1ccc(C(=O)c2ccc(OC)cc2OC)cc1`
// result 0

====

Entries and their TGI
System: SW-620 colon
assaySummary: NCI tumour cell line growth inhibition, 48 h

// query // returns reported TGI for input CC(=O)OCCC[C@@H]1C(=C(C)C)CCC2[C@@]1(C)CC[C@@]1(C)C[C@](C)(CCC=C(C)C)CC[C@]21C (stereo not given in full)
// result > 100 µM

====

Entries and their TGI
Test system: MDA-MB-435
assaySummary: NCI tumour cell line growth inhibition, 48 h
Form entry: value (µM) — number only.

// known answers, use as guide
{"columns": ["compound", "TGI [µM]"],
 "data": [
  ["Cc1cccc(Oc2ccc(Nc3ncnc4ccc(NC(=O)CN5CCN(C)CC5)cc34)cc2Cl)c1", 2.99],
  ["O=c1[nH]c2nccn2c(Cl)c1Br", 42],
  ["COC(=O)C(Cc1ccccc1)C(=O)NC(CNC(=O)OCc1ccccc1)C(=O)OCc1ccccc1 (configuration not stated)", 50],
  ["O=C1c2ccccc2-c2ccc(O)cc21", 59.6],
  ["CCN(CC)CCCN1C(=O)c2c(c(C)c3c(oc4cc(O)ccc43)c2C)C1=O", 3.22],
  ["Nc1c(C(=O)Nc2cccc3ccccc23)sc2nc3c(cc12)CCCCC3", 0.32]
]}

// query // returns reported TGI for input N=C(N)C(N=Nc1ccccc1)C(=N)N (configuration not stated)
// result 42.7

// query // returns reported TGI for input Nc1nc(F)nc2c1ncn2C1OC(COP(=O)(O)O)C(O)C1O (configuration not stated)
// result 218

// query // returns reported TGI for input C/C(=C\c1csc(C)n1)[C@@H]1C[C@@H]2O[C@]2(C)CCC[C@H](C)[C@H](O)[C@@H](C)C(=O)C(C)(C)[C@@H](O)CC(=O)O1 (tested in a mixture with another compound)
// result 0.00284

// query // returns reported TGI for input `COc1c(C(=O)O)cccc1-c1cccc(C(=O)NCCN(CCNC(=O)c2cccc(-c3cccc(C(=O)O)c3OC)c2OC)CCNC(=O)c2cccc(-c3cccc(C(=O)O)c3OC)c2OC)c1OC`
// result 34.3

Data provenance: PubChem BioAssay (NCI)
